Sequence of the target: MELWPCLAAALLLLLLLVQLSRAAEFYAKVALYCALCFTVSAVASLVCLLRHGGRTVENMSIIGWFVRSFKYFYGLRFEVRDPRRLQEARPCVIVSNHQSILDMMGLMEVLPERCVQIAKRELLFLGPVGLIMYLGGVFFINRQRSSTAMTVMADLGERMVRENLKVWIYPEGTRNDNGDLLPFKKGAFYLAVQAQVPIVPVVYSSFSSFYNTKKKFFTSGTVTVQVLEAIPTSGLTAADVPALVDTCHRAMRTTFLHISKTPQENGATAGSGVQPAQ
Multiple publications report IC50 for the protein given by its sequence; what follows is a combined list.

1) COc1ccc(Cl)cc1-c1cc(N)nc(Nc2ccc(Cl)cc2)n1 = 2.05 µM
2) CCOc1ccc(Br)cc1-c1cc(Nc2ccc(C#N)cc2)nc(N)n1 = 0.017 µM

Item under review: C#CCCC(=O)Nc1ccc(Cl)c(-c2nc3cc(C)ccc3o2)c1 . Reported IC50?
0.5 µM

Can you share its IC50? I mean this molecule: Cc1cc(-c2nc3ccccc3s2)ccc1N
> 40 µM
